B1: ZNF511 (parent)
chain: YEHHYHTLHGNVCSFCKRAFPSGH

# Variants of: B1
# assay: protein stability index of a GFP-peptide fusion (GPS, HEK-293T) (PSI 1-6); higher = more stable;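 further: lentivirally expressed fusions sorted by FACS into six bins by GFP to DsRed ratio, PSI derived from sequencing read proportions per bin multiplied by bin number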
# measurement_context: c terminus: a fixed tail appended
Hi, to clarify the labels: true (1) covers protein stability index from 2 upward, false (0) covers anything below 2.

Examples from the recorded data:
YEHHYHTLHGNVCSYCKRAFPSGH [F15Y] | true (1)
YEHHYHTLHGNVCSFYKRAFPSGH [C16Y] | true (1)
YEHHYHTSHGNVCSFCKRAFPSGH [L8S] | true (1)
YEHHYHTLHGNVCVFCKRAFPSGH [S14V] | false (0)

Req: API: above_or_equal(metric=protein stability index, cutoff=2) for item YEHHYHTLHGNVCSFCKRAFYSGH [P21Y]
Resp: false (0)

Req: Now this one: YEHHYHTLHGLVCSFCKRAFPSGH [N11L]
Resp: false (0)

Req: Now this one: YEHHYHTLHGNVCSFCQRAFPSGH [K17Q]
Resp: true (1)

Req: Now this one: YEHHYHTLHGWVCSFCKRAFPSGH [N11W]
Resp: true (1)

Req: Now this one: YEHHYITLHGNVCSFCKRAFPSGH [H6I]
Resp: true (1)

Req: Now this one: YEHHYHMLHGNVCSFCKRAFPSGH [T7M]
Resp: true (1)

Origin of the recorded values: the supplement of paper PMC10567573
